- tested_system: UniProtKB P34913
- Sequence (P34913 1-555): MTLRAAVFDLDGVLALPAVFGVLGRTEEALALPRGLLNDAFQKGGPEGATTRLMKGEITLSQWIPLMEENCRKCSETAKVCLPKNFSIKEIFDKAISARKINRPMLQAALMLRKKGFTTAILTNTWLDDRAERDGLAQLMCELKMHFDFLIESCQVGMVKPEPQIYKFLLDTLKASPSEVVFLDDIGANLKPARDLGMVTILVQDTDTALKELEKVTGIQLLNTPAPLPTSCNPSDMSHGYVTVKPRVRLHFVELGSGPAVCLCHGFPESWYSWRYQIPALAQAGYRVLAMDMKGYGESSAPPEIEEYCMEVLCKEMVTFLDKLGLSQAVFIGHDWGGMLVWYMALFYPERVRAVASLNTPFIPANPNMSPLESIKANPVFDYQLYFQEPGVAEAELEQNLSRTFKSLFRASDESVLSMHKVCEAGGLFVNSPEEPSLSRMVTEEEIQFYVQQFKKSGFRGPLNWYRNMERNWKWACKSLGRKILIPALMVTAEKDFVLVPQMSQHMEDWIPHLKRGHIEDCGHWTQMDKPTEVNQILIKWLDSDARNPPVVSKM
Record form. Attribute: IC50. Fill in for each entry.

CCC(=O)Nc1cc(Cl)c(Oc2ccc(O)c(-c3ccc(NC(N)=O)cc3)c2)c(Cl)c1 [Compound 8h] | ~8 µM

Now let's try a different one.
Query: Please indicate recorded IC50 of CCC(=O)Nc1cc(Cl)c(Oc2ccc(O)c(-c3ccc(C(N)=O)cc3)c2)c(Cl)c1 [Compound 8c] measured with UniProtKB P34913.
Result: ~8 µM
